For reference, the following IC50 results for Tyrosinase (Agaricus bisporus) were taken from various sources.
Response field label takes T when IC50 is strictly below 200 µM and F in all other cases.

Prompt: Does CC1=C(C=O)C(C)(C)[C@@H](O)[C@H](O)C1 have IC50 strictly under 200 µM?
Response: F

Prompt: Does COc1ccc(-c2cc3cc(Br)cc(OC)c3oc2=O)cc1 have IC50 strictly under 200 µM?
Response: F

Prompt: Does CCCCC(=O)NC(=S)Nc1ccc(Br)cc1F have IC50 strictly under 200 µM?
Response: T

Prompt: Does COc1cc([C@@H]2c3c(cc(OC)c(O)c3OC)C[C@@H](CO)[C@H]2CO[C@@H]2O[C@H](CO)[C@@H](O)[C@H](O)[C@H]2O)cc(OC)c1O have IC50 strictly under 200 µM?
Response: F

Prompt: Does O=C(O)CCC(=O)NCCc1c[nH]c2ccc(O)cc12 have IC50 strictly under 200 µM?
Response: F

Prompt: Does O=C1NC(=S)S/C1=C\c1ccc(OCCO)cc1 have IC50 strictly under 200 µM?
Response: F

* * *

For reference, the following pIC50 results for Tyrosinase (Agaricus bisporus, UniProt O42713) were taken from various sources.
pIC50 is defined as minus the log10 of a concentration measured in mol/L.

Some compounds with recorded pIC50:
Prompt: Give the measured pIC50 of Cc1cc(=O)[nH]c(=S)[nH]1 .
Response: 3.85

Prompt: Give the measured pIC50 of CC(C)=CCc1c(O)ccc2c1O[C@H](c1ccc(O)cc1O)CC2 .
Response: 6.82

Prompt: Give the measured pIC50 of O=C1OC(c2ccc(/N=N/c3ccc(N4CCOCC4)cc3)cc2)=N/C1=C/c1ccc(F)cc1Cl .
Response: 4.80

Prompt: Give the measured pIC50 of OC[C@H]1O[C@@H](Oc2ccc(/C=C/c3cc(O)cc(O)c3)cc2)[C@H](O)[C@@H](O)[C@@H]1O .
Response: 4.72

Prompt: Give the measured pIC50 of O=C(/C=C/c1cc(=O)c(O)co1)OCCO .
Response: 4.13

Next:
Prompt: Give the measured pIC50 of CC(C)(C)COC(=O)CCc1ccc(O)cc1O .
Response: 6.74

Prompt: Give the measured pIC50 of Cn1cc[nH]c1=S .
Response: 2.84

Prompt: Give the measured pIC50 of Oc1ccc(-c2nc3ccccc3s2)cc1 .
Response: 5.94

Prompt: Give the measured pIC50 of CONC(=S)Nc1ccc2ccccc2c1 .
Response: 4.59

* * *

# test-target: UniProt O42713
# Sequence (O42713 whole entry): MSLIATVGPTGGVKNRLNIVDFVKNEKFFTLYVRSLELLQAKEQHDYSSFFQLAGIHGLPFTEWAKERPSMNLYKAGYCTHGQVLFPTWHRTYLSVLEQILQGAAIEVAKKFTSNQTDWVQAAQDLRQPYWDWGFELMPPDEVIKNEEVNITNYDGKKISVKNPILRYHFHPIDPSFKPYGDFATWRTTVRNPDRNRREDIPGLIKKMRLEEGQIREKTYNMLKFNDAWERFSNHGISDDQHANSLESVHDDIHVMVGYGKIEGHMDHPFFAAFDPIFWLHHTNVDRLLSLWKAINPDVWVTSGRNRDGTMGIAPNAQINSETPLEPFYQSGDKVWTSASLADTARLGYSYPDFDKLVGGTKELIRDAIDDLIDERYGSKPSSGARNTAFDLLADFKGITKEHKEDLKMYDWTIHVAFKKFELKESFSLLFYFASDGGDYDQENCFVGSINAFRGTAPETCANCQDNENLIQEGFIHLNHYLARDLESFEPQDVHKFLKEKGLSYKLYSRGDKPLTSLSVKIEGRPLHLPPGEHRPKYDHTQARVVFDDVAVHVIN
pIC50: −log10 of the molar value.
For reference, the following pIC50 results for UniProt O42713 were taken from various sources.
Lab note: anything with pIC50 at or over 5 counts as fulfilled; the rest go in not fulfilled.

Prompt: State whether the measured pIC50 reaches 5, counting equality as reaching it, for Oc1cc(O)cc(-c2ccc3cc(O)ccc3c2)c1
Response: not fulfilled

Prompt: State whether the measured pIC50 reaches 5, counting equality as reaching it, for Oc1ccc(CCc2ccccc2)c(O)c1
Response: not fulfilled

Prompt: State whether the measured pIC50 reaches 5, counting equality as reaching it, for COc1c(O)cc2c(c1O)[C@@H]1O[C@H](CO)[C@@H](O)[C@H](O)[C@H]1OC2=O
Response: not fulfilled

Prompt: State whether the measured pIC50 reaches 5, counting equality as reaching it, for COc1ccc2c(c1C/C=C(\C)CO)O[C@H](c1ccc(O)cc1O)CC2
Response: fulfilled

Prompt: State whether the measured pIC50 reaches 5, counting equality as reaching it, for CCOC(=O)CCCOc1ccc(CC/C(C)=N/NC(N)=S)cc1
Response: fulfilled

Field: next compound
Prompt: State whether the measured pIC50 reaches 5, counting equality as reaching it, for CCOc1cc(C(C)C)c(C(=O)CCC(=O)O)cc1C
Response: not fulfilled
